Where do these numbers come from? They come from patent US20080090805A1.

protocol: Clearance study, liver microsomes (rats)
particulars: rat, pH 7.4
Under this convention, yes (1) denotes microsomal CLint at 1 μM strictly below 100 µL/min/mg and no (0) denotes microsomal CLint at 1 μM at or above 100 µL/min/mg.

A selection of reference data follows.
CCCCNC(=O)c1ccc2c(c1)N=C(c1ccc(Cl)s1)c1ccc(Cl)cc1S2 [drawing 1694] : yes (1)
CCN(CCNC(=O)c1ccc2c(c1)N=C(C1CCCCC1)c1ccccc1S2)c1ccccc1 [drawing 1747] : no (0)

Now, please, on to the next molecule.
Query: API: query returns whether the molecule falls strictly under 100 µL/min/mg in microsomal CLint at 1 μM. Query: CC(CNC(=O)c1ccc2c(c1)N=C(c1ccc(Cl)cc1)c1ccccc1S2)c1ccccc1 (centres unmarked) [drawing 1743]
Result: no (0)

---

Kindly state Ki for each of the entries shown.
systemName: UniProtKB P20272
Sequence (P20272 whole entry): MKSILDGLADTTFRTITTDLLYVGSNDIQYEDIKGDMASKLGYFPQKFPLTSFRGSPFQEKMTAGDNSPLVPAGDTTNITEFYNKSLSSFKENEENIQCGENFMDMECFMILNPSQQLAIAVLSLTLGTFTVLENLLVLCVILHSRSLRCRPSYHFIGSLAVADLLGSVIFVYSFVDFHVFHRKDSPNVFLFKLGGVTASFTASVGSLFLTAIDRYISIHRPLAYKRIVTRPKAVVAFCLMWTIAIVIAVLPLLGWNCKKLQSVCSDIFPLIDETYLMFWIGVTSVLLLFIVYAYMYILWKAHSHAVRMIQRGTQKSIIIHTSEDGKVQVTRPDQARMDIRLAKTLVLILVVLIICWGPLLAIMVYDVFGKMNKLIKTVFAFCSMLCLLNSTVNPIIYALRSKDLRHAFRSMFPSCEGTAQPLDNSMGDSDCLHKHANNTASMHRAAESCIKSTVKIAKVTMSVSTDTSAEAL
protocol: CB1 receptor rat binding assay ([3H]SR141716A, rat brain membranes)
particulars: rat brain membranes, [3H]SR141716A; read-out: Binding rat pKi (converted)
Give bare numbers, in nM.

Known results for compounds:
O=C(NCc1ccccc1Cl)c1ccc2c(c1)N=C(c1ccc(Cl)cc1)c1ccccc1S2 [drawing 1341] : 25.1
O=C(NCCc1ccc(Cl)cc1)c1ccc2c(c1)N=C(c1ccc(Cl)cc1)c1ccccc1S2 [drawing 1376] : 5.01
Cc1ccsc1C1=Nc2cc(C(=O)NCc3ccco3)ccc2Sc2ccccc21 [drawing 1277] : 20
O=C(NCc1ccc(F)cc1)c1ccc2c(c1)N=C(C1CCCCC1)c1ccccc1S2 [drawing 1336] : 3.98
O=C(NCCc1cccc(Cl)c1)c1ccc2c(c1)N=C(c1cccc(Cl)c1)c1ccccc1S2 [drawing 1331] : 25.1
O=C(NC1CCC(F)(F)CC1)c1ccc2c(c1)N=C(c1ccc(Cl)s1)c1ccccc1S2 [drawing 1224] : 0.631
Cc1ccsc1C1=Nc2cc(C(=O)NC3CCCCC3)ccc2Sc2ccccc21 [drawing 1531] : 10

We next turn to a different compound, shown below.
Query: Sample CC(C)CCNC(=O)c1ccc2c(c1)N=C(c1cccc(Cl)c1)c1ccccc1S2 [drawing 1185] — what was its Ki?
Result: 1

---

systemName: CB1 (mutant) (Homo sapiens, UniProt P21554)
Sequence (P21554 1-417, change not shown): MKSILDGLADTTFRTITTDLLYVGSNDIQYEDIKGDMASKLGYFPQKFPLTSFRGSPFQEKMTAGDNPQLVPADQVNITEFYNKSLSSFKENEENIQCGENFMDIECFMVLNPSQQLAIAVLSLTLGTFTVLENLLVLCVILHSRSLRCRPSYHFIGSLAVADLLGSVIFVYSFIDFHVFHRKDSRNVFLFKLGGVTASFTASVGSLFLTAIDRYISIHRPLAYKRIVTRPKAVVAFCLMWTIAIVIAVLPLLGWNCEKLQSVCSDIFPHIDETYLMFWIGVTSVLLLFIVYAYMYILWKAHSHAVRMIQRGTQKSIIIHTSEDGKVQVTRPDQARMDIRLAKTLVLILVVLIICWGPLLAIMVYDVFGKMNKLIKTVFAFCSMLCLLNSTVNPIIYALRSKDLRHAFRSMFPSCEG
protocol: R-SAT functional receptor assay, CB1 (mutant, truncated after amino acid 417)
Format: cell-based
particulars: Appendix A; R-SAT CB1; receptor form not stated; relative to SR141716 (100%); read-out: % Inhibition
endpoint: Emax (%)
One number for each entry, in %.

CCCNC(=O)c1ccc2c(c1)N=C(CCC)c1ccccc1S2 : 95
NS(=O)(=O)c1ccc(CNC(=O)C2C=C3N=C(N4CCCCC4)c4ccccc4SC3=CC2)cc1 (stereo not drawn) : 78
Cc1ccc(CNC(=O)c2ccc3c(c2)N=C(c2cccc(F)c2)c2ccccc2S3)o1 [drawing 947] : 69
COc1ccc(C2=Nc3cc(C(=O)NC(C)C)ccc3Sc3ccccc32)cc1 [drawing 780] : 84

Quick request: Emax for each listed item, please.
1. NS(=O)(=O)c1ccc(CNC(=O)c2ccc3c(c2)N=C(c2ccc(Cl)cc2)c2ccccc2S3)cc1 [drawing 746]
2. O=C(NCc1ccc(Cl)cc1Cl)c1ccc2c(c1)N=C(N1CCCCC1)c1ccccc1S2 [drawing 1123]
3. O=C(NC1CCC(F)(F)CC1)c1ccc2c(c1)N=C(c1ccc(F)cc1)c1ccccc1S2 [drawing 821]
4. Cc1cccnc1C1=Nc2cc(C(=O)NCc3cccs3)ccc2Sc2ccccc21
5. O=C(NCc1ccccc1Cl)c1ccc2c(c1)N=C(N1CCCCC1)c1ccccc1S2 [drawing 1013]
6. CC(CNC(=O)c1ccc2c(c1)N=C(c1cccc(Cl)c1)c1cc(F)ccc1S2)c1ccccc1 (stereo not drawn) [drawing 879]
7. CCONC(=O)c1ccc2c(c1)N=C(c1ccccn1)c1ccccc1S2

Result:
1. 76
2. 101
3. 91
4. 97
5. 117
6. 113
7. 3

Items follow; give Emax for each.
1. O=C(NC1CCCC1)c1ccc2c(c1)N=C(c1ccccc1Cl)c1ccccc1S2
2. Cc1cccnc1C1=Nc2cc(C(=O)NCc3ccco3)ccc2Sc2ccccc21
3. CCCC1=Nc2cc(C(=O)NCCN(CC)c3ccccc3)ccc2Sc2ccccc21 [drawing 885]
4. CCCNC(=O)c1ccc2c(c1)N=C(c1ccc(Cl)s1)c1ccccc1S2 [drawing 675]

Result:
59
83
106
88

The following compounds each have a reported value; give each one's Emax.
1. CCCCNC(=O)c1ccc2c(c1)N=C(c1cccc(Cl)c1)c1cc(F)ccc1S2 [drawing 829]
2. Cc1ccsc1C1=Nc2cc(C(=O)NCc3ccco3)ccc2Sc2ccccc21 [drawing 855]
3. O=C(NCCc1ccccc1)c1ccc2c(c1)N=C(c1cccc(Cl)c1)c1ccccc1S2 [drawing 731]

Result:
1. 105
2. 100
3. 104

---

protocol: Clearance study, liver microsomes (human)
particulars: pH 7.4
Use 50 µL/min/mg as the dividing line for microsomal CLint at 1 μM, with the line itself on the Yes side and lower values as No.

CCCCNC(=O)c1ccc2c(c1)N=C(c1ccc(Cl)cc1)c1ccc(F)cc1S2 [drawing 1663] : No
O=C(NCc1ccc(F)cc1)c1ccc2c(c1)N=C(N1CCCCC1)c1ccccc1S2 [drawing 1738] : Yes
O=C(NCc1cccc(Cl)c1)c1ccc2c(c1)N=C(N1CCCCC1)c1ccccc1[S+]2[O-] (centres unmarked) [drawing 1774] : Yes
CCCCNC(=O)c1ccc2c(c1)N=C(c1cccc(F)c1)c1ccccc1S2 [drawing 1700] : Yes
Cc1csc(CNC(=O)c2ccc3c(c2)N=C(c2cccc(C)n2)c2ccccc2S3)c1 [drawing 1727] : Yes
O=C(NN1CCCCCC1)c1ccc2c(c1)N=C(c1cccc(Cl)c1)c1ccccc1S2 [drawing 1689] : Yes

Query: Is microsomal CLint at 1 μM for Cc1ccsc1C1=Nc2cc(C(=O)NCc3cccs3)ccc2Sc2ccccc21 [drawing 1781] at or above 50 µL/min/mg?
Result: Yes

Query: Reported microsomal CLint at 1 μM reaches at least 50 µL/min/mg for O=C(NCc1cccs1)c1ccc2c(c1)N=C(c1ccc(F)cc1)c1ccccc1S2 [drawing 1659] ?
Result: Yes

Query: Dear colleague, could you confirm whether O=C(NN1CCCCC1)c1ccc2c(c1)N=C(c1ccc(Cl)cc1)c1ccccc1S2 [drawing 1676] has microsomal CLint at 1 μM at or above 50 µL/min/mg?
Result: No

Query: Is reported microsomal CLint at 1 μM greater than or equal to 50 µL/min/mg here: Cc1ccc(CNC(=O)c2ccc3c(c2)N=C(c2ccc(F)cc2)c2ccccc2S3)o1 [drawing 1711]
Result: No

Query: Kindly determine if microsomal CLint at 1 μM recorded for O=C(NN1CCCCC1)c1ccc2c(c1)N=C(c1ccc(Cl)cn1)c1ccccc1S2 [drawing 1786] is above or exactly 50 µL/min/mg.
Result: Yes

Query: State whether the measured microsomal CLint at 1 μM reaches 50 µL/min/mg, counting equality as reaching it, for O=C(NCCc1ccc(Cl)cc1)c1ccc2c(c1)N=C(c1cccc(Cl)c1)c1ccccc1S2 [drawing 1739]
Result: Yes

Query: Record O=C(NC1CCCCC1)c1ccc2c(c1)N=C(c1ccc(Cl)cc1)c1ccccc1S2 [drawing 1712] ; criterion: microsomal CLint at 1 μM no lower than 50 µL/min/mg. Met?
Result: No

---

systemName: UniProtKB P21554
protocol: CB1 receptor human binding assay ([3H]SR141716A, transfected HEK-293 T membranes)
particulars: human CB1, HEK-293 T membranes, read-out: Binding Human pKi (converted)
Ki less than 1 nM is true (1); Ki greater than or equal to 1 nM is false (0).

Solved cases below.
COCCNC(=O)c1ccc2c(c1)N=C(c1ccc(Cl)s1)c1ccccc1S2 [drawing 1218] : false (0)
O=C(NCCCC(F)(F)F)c1ccc2c(c1)N=C(c1ccc(Cl)cc1F)c1ccccc1S2 [drawing 1175] : true (1)
COc1cccc(C2=Nc3cc(C(=O)NC4CCC(F)(F)CC4)ccc3Sc3ccccc32)n1 [drawing 1193] : true (1)
CC(C)CNC(=O)c1ccc2c(c1)N=C(c1ccc(Cl)cc1F)c1ccccc1S2 [drawing 1199] : true (1)
O=C(NN1CCCCCC1)c1ccc2c(c1)N=C(c1cccc(F)c1)c1ccccc1S2 [drawing 1215] : false (0)
O=C(NC1CCCCC1)c1ccc2c(c1)N=C(c1cccc(Cl)c1)c1ccccc1S2 [drawing 1194] : true (1)
O=C(NC1CCCCC1)c1ccc2c(c1)N=C(c1ccc(F)cc1)c1ccccc1S2 [drawing 1202] : false (0)
COc1cccc(C2=Nc3cc(C(=O)NCCCC(F)(F)F)ccc3Sc3ccccc32)n1 [drawing 1186] : true (1)

Query: Consider CC(C)CCNC(=O)c1ccc2c(c1)N=C(c1cccc(Cl)c1)c1ccccc1S2 [drawing 1185] . Does its Ki lie strictly below 1 nM?
Result: true (1)

Query: Does the reported Ki of CCCNC(=O)c1ccc2c(c1)N=C(c1ccc(Cl)cc1)c1ccccc1S2 [drawing 1210] stay below 1 nM?
Result: false (0)

Query: is_below(Ki, 1 nM) for CC(C)CNC(=O)c1ccc2c(c1)N=C(c1ccccn1)c1ccccc1S2 [drawing 1217] ?
Result: false (0)

Query: Consider the compound O=C(NN1CCCCC1)c1ccc2c(c1)N=C(C1CCCCC1)c1ccccc1S2 [drawing 1216] . Is its Ki strictly less than 1 nM?
Result: false (0)
